Target: T1, human IL-13 R130Q variant (R110Q of the mature chain) (human, UniProt P35225 35-146, Biotinylated on amines (NHS-LC-biotin, 4:1) in ELISA, panning and competition assays. The letters are unchanged.)
T1 construct: R130Q counts from Met 1 of the signal peptide, R110Q on the mature chain; Bought from Peprotech; also called IL-13 R110Q; b-R130Q
T1 sequence (P35225 35-146 limits assumed, stated change not applied): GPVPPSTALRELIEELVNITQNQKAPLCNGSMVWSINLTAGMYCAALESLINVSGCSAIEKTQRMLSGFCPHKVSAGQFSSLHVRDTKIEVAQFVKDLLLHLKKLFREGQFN
Test: single-point (10 nM) phage Fab ELISA on biotinylated IL-13 R130Q
Signal (% of Lc16Hc7) reference
Property: Signal (% of Lc16Hc7) (%)

>  <Binder>
Fab clone without printed name, L-CDR3 Q D G del (IL-13-62 library) (Fab, V domains shown, Fab on phage pIX; del = residue deleted) VH: QVTLKESGPVLVKPTETLTLTCTVSGFSLSTYGMGVGWIRQPPGKALEWLAHIWWDDVKRYNPALKSRLTISKDTSKSQVVLTMTNMDPVDTATYYCARMGSDYDVWFDYWGQGTLVTVSS VL: EIVLTQSPATLSLSPGERATLSCRASKSISKYLAWYQQKPGQAPRLLIYSGSTLQSGIPARFSGSGSGTDFTLTISSLEPEDFAVYYCQQQDGPYTFGQGTKLEIK

>  <Property>
Signal (% of Lc16Hc7)

>  <Assay Result>
184

$$$$
>  <Binder>
Fab clone 2E07 (IL-13-62 library) (Fab, V domains shown, Fab on phage pIX) VH: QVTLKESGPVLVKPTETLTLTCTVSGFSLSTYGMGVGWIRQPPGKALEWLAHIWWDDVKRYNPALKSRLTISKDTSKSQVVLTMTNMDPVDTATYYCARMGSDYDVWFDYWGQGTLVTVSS VL: EIVLTQSPATLSLSPGERATLSCRASKSISKYLAWYQQKPGQAPRLLIYSGSTLQSGIPARFSGSGSGTDFTLTISSLEPEDFAVYYCQQPLEAPYTFGQGTKLEIK

>  <Property>
Signal (% of Lc16Hc7)

>  <Assay Result>
104

$$$$
>  <Binder>
Fab clone 2A07 (IL-13-62 library) (Fab, V domains shown, Fab on phage pIX) VH: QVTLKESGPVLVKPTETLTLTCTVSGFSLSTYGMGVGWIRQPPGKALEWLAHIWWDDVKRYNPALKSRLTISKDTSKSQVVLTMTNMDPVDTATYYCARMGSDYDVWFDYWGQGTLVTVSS VL: EIVLTQSPATLSLSPGERATLSCRASKSISKYLAWYQQKPGQAPRLLIYSGSTLQSGIPARFSGSGSGTDFTLTISSLEPEDFAVYYCQQHDPGPYTFGQGTKLEIK

>  <Property>
Signal (% of Lc16Hc7)

>  <Assay Result>
136

$$$$
>  <Binder>
Fab clone 3F08 (IL-13-62 library) (Fab, V domains shown, Fab on phage pIX) VH: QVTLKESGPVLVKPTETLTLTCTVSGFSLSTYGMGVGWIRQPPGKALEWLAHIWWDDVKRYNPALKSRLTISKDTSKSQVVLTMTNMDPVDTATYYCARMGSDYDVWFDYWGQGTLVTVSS VL: EIVLTQSPATLSLSPGERATLSCRASKSISKYLAWYQQKPGQAPRLLIYSGSTLQSGIPARFSGSGSGTDFTLTISSLEPEDFAVYYCQQHLMGPYTFGQGTKLEIK

>  <Property>
Signal (% of Lc16Hc7)

>  <Assay Result>
111

$$$$
>  <Binder>
Fab clone 1H05 (IL-13-62 library) (Fab, V domains shown, Fab on phage pIX) VH: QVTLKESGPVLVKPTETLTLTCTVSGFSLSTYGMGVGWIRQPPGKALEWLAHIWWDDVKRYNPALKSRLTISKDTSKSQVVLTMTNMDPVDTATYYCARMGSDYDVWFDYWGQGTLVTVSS VL: EIVLTQSPATLSLSPGERATLSCRASKSISKYLAWYQQKPGQAPRLLIYSGSTLQSGIPARFSGSGSGTDFTLTISSLEPEDFAVYYCQQQDYGPYTFGQGTKLEIK

>  <Property>
Signal (% of Lc16Hc7)

>  <Assay Result>
172

$$$$
>  <Binder>
Fab clone 4B10 (IL-13-62 library) (Fab, V domains shown, Fab on phage pIX) VH: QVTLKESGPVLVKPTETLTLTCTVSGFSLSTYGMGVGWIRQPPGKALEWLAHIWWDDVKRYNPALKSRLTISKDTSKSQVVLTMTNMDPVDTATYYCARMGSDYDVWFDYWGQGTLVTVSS VL: EIVLTQSPATLSLSPGERATLSCRASKSISKYLAWYQQKPGQAPRLLIYSGSTLQSGIPARFSGSGSGTDFTLTISSLEPEDFAVYYCQQHFWGPYTFGQGTKLEIK

>  <Property>
Signal (% of Lc16Hc7)

>  <Assay Result>
117

$$$$
>  <Binder>
Fab clone 3E03 (IL-13-62 library) (Fab, V domains shown, Fab on phage pIX) VH: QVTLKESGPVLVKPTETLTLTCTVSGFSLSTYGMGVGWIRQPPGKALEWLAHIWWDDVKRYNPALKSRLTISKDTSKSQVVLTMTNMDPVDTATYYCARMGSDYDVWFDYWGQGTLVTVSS VL: EIVLTQSPATLSLSPGERATLSCRASKSISKYLAWYQQKPGQAPRLLIYSGSTLQSGIPARFSGSGSGTDFTLTISSLEPEDFAVYYCQQHSIGPYTFGQGTKLEIK

>  <Property>
Signal (% of Lc16Hc7)

>  <Assay Result>
122

$$$$
>  <Binder>
Fab clone 4D01 (IL-13-62 library) (Fab, V domains shown, Fab on phage pIX) VH: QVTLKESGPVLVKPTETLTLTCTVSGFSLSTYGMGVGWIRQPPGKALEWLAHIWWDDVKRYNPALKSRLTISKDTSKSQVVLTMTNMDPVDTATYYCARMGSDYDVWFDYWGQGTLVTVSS VL: EIVLTQSPATLSLSPGERATLSCRASKSISKYLAWYQQKPGQAPRLLIYSGSTLQSGIPARFSGSGSGTDFTLTISSLEPEDFAVYYCQQPLDVPYTFGQGTKLEIK

>  <Property>
Signal (% of Lc16Hc7)

>  <Assay Result>
140

$$$$
>  <Binder>
Fab clone 1G05 (IL-13-62 library) (Fab, V domains shown, Fab on phage pIX) VH: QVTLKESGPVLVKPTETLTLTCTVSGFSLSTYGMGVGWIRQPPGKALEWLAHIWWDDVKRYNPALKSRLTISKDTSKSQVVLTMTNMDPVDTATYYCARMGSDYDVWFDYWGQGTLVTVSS VL: EIVLTQSPATLSLSPGERATLSCRASKSISKYLAWYQQKPGQAPRLLIYSGSTLQSGIPARFSGSGSGTDFTLTISSLEPEDFAVYYCQQQDIGPYTFGQGTKLEIK

>  <Property>
Signal (% of Lc16Hc7)

>  <Assay Result>
144

$$$$
>  <Binder>
Fab clone 1D01 (IL-13-62 library) (Fab, V domains shown, Fab on phage pIX) VH: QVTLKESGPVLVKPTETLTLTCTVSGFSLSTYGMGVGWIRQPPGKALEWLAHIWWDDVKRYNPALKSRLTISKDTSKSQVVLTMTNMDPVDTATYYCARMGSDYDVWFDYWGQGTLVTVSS VL: EIVLTQSPATLSLSPGERATLSCRASKSISKYLAWYQQKPGQAPRLLIYSGSTLQSGIPARFSGSGSGTDFTLTISSLEPEDFAVYYCQQHSYGPYTFGQGTKLEIK

>  <Property>
Signal (% of Lc16Hc7)

>  <Assay Result>
144

$$$$

All figures here come from patent US20120045438A1.
